Measured pIC50, listed per entry for reference.
- System: KO-52 cells
- TEST_NAME: Proliferation assay, spheroid-like growth, KO-52 (MLL wildtype control cell line)
- Assay type: cell-based, human
- MEASUREMENT_CONTEXT: Homo sapiens, 192 h, KO-52 control cells, 8 days, confluence as measure of spheroid size; read-out: spheroid assay_OneTime KO-52 IC50
- Procedure: The anti-proliferative effect of menin/MLL protein/protein interaction inhibitor test compounds was assessed in human leukemia cell lines. […] In order to assess the anti-proliferative effects, 200 MOLM14 cells, or 300 KO-52 cells were seeded in 200 μl media per well in 96-well round bottom, ultra-low attachment plates (Costar, catalogue number 7007). […] Spheroid like growth was measured in real-time by live-cell imaging (IncuCyteZOOM, Essenbio, 4× objective) acquiring images at day 8. […]
pIC50: −log10 of the molar value.

Inquiry: Input CCC(=O)N[C@H]1C[C@@H]([C@@H](C(C)C)N2CC3(CCN(c4ncnnc4Oc4ccc(F)cc4-c4cncnc4C4CC4)C3)C2)C1 (single isomer, unassigned) , output reported pIC50.
Reply text: < 4.82

Inquiry: Note down pIC50 recorded for CO[C@H]1CCCN([C@H]2C[C@@H]([C@H](C(C)C)N3CC4(CCN(c5ncnnc5Oc5ccc(F)cc5-c5nnccc5C5CC5)C4)C3)C2)C1 (single isomer, unassigned)
Reply text: < 4.82

Inquiry: Look up and state reported pIC50 for CO[C@@H]1CCN([C@H]2C[C@@H]([C@H](C(C)C)N3CC4(CCN(c5ncnnc5Oc5ccc(F)cc5-c5nnccc5C5CC5)C4)C3)C2)C1 (single isomer, unassigned)
Reply text: < 4.82

* * *

- System: MOLM14 cells
- TEST_NAME: Proliferation assay, spheroid-like growth, MOLM14 (MLL-AF9 rearranged)
- Format: cell-based, human
- MEASUREMENT_CONTEXT: Homo sapiens, MOLM-14, 192 h, 8 days, confluence as measure of spheroid size, read-out: spheroid assay_OneTime MOLM14 IC50
pIC50: −log10 of the molar value.
Label Yes when pIC50 is at or above 7; anything below gets No.

CC(=O)Nc1cc(N[C@H]2C[C@@H]([C@@H](C(C)C)N3CC4(CCN(c5ncnnc5Oc5ccc(F)cc5-c5cncnc5C5CC5)C4)C3)C2)ncn1 (single isomer, unassigned) [Compound 418] : Yes
CC(C)[C@@H](C1CC2(CCN2CC2COC2)C1)N1CC2(CCN(c3ncnnc3Oc3ccc(F)cc3-c3cncnc3C3CC3)C2)C1 (single isomer, unassigned) [Compound 158] : No
COC1CN([C@H]2C[C@H]([C@@H](C(C)C)N3CC4(CCN(c5ncnnc5Oc5ccc(F)cc5-c5cncnc5C5CC5)C4)C3)C2)CC1OC (single isomer, unassigned) [Compound 237] : Yes
Fc1ccc(Oc2nncnc2N2CCC3(C2)CN([C@@H](C2CCN(CC4COC4)CC2)C24CC(C2)C4)C3)c(-c2cncnc2C2CC2)c1 (single isomer, unassigned) [Compound 336] : No
Cc1cc(C2CC2)c(-c2cc(F)ccc2Oc2nncnc2N2CCC3(C2)CN([C@@H](C(C)C)[C@H]2C[C@H](N4C[C@@H]5[C@H](C4)[C@H]5C(=O)N(C)C)C2)C3)nn1 [Compound 401] : No
Cc1ncc(-c2cc(F)ccc2Oc2nncnc2N2CCC3(C2)CN([C@@H](C(C)C)[C@H]2C[C@@H](N4CC[C@H](NC(=O)C5CC5)C4)C2)C3)c(C2CC2)n1 [Compound 387] : Yes

Inquiry: Can CC(C)[C@H]([C@H]1C[C@H](N2CC(O)C3(CC3)C2)C1)N1CC2(CCN(c3ncnnc3Oc3ccc(F)cc3-c3cncnc3C3CC3)C2)C1 (mixture of isomers) [Compound 43] be said to have pIC50 at or above 7?
Reply text: Yes

Inquiry: Does the reported pIC50 for CC(C)[C@H]([C@H]1C[C@@H](N2CC3(CCCCO3)C2)C1)N1CC2(CCN(c3ncnnc3Oc3ccc(F)cc3-c3nnccc3C3CC3)C2)C1 (single isomer, unassigned) [Compound 267] fall at or above the 7 mark?
Reply text: No

Inquiry: Reported pIC50 reaches at least 7 for CC(C)C([C@H]1C[C@@H](NCC(C)(C)O)C1)N1CC2(CCN(c3ncnnc3Oc3ccc(F)cc3-c3cncnc3C3CC3)C2)C1 (stereo partly drawn) [Compound 133] ?
Reply text: Yes

Inquiry: In plain terms: is recorded pIC50 at least 7 for CC(C)[C@H]([C@H]1C[C@@H](N2CCC3(CCO3)CC2)C1)N1CC2(CCN(c3ncnnc3Oc3ccc(F)cc3-c3cnncc3C3CC3)C2)C1 (single isomer, unassigned) [Compound 280a] ?
Reply text: No

Inquiry: Check if pIC50 >= 7 (inclusive). Item: CC(C)[C@H]([C@H]1C[C@@H](Nc2ncc(C(=O)N(C)C)o2)C1)N1CC2(CCN(c3ncnnc3Oc3ccc(F)cc3-c3cncnc3C3CC3)C2)C1 (single isomer, unassigned) [Compound 435]
Reply text: Yes

* * *

- Test system: MOLM14 cells
- TEST_NAME: Proliferation assay, spheroid-like growth, MOLM14 (MLL-AF9 rearranged)
- Type: cell-based, human
- MEASUREMENT_CONTEXT: Homo sapiens, MOLM-14, 192 h, 8 days, confluence as measure of spheroid size, read-out: spheroid assay_OneTime MOLM14 IC50
OBSERVED_PROPERTY: IC50 (nM)
Hi! Could you send only the number? It should be in nM, unit omitted.

CC(C)[C@H]([C@H]1C[C@@H](NC(=O)C2CC2)C1)N1CC2(CCN(c3ncnnc3Oc3ccc(F)cc3-c3cnncc3C3CC3)C2)C1 (single isomer, unassigned) [Compound 185] : 6

Inquiry: Report the value of IC50 obtained on MOLM14 cells for CC(C)[C@@H]([C@H]1C[C@@H](N2CC[C@](C)(O)C2)C1)N1CC2(CCN(c3ncnnc3Oc3ccc(F)cc3-c3cnncc3C3CC3)C2)C1 (single isomer, unassigned) [Compound 112] .
Reply text: 6

* * *

- TARGET_OR_TEST_SYSTEM: menin/MLL (terbium chelate-labeled menin, FITC-MBM1 peptide) (Homo sapiens, UniProt O00255, T541A)
- Construct: Menin (a.a 1-610-6xhis tag)
- Sequence (O00255 with tags, fused parts or gaps T541A): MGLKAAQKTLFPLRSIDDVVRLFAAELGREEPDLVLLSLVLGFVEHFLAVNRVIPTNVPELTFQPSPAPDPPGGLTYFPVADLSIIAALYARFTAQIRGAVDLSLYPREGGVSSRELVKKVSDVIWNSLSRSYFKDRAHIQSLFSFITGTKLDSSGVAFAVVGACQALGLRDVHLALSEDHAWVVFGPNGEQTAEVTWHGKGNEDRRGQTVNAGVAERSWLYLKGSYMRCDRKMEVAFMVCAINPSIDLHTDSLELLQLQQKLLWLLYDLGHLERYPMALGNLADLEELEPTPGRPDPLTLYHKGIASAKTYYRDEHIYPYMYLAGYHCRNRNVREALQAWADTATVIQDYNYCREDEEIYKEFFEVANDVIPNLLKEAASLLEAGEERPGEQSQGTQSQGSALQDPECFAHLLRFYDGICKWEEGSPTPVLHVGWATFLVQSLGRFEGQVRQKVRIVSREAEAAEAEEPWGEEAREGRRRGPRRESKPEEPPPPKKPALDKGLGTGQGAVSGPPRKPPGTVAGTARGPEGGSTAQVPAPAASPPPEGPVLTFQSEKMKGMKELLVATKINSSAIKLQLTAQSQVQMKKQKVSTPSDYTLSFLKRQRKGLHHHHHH
- TEST_NAME: Menin/MLL homogenous time-resolved fluorescence (HTRF) assay
- Assay type: binding
- MEASUREMENT_CONTEXT: 30 min incubation
Each record here notes measured IC50.
State the answer as a number, implicitly in pM.

Cc1cc(-c2cnnc(N[C@H]3C[C@@H]([C@@H](C(C)C)N4CC5(CCN(c6ncnnc6Oc6ccc(F)cc6-c6cncnc6C6CC6)C5)C4)C3)c2)[nH]n1 (single isomer, unassigned) : 180
CC(=O)N[C@H]1C[C@@H](C(C(C)C)N2CC3(CCN(c4ncnnc4Oc4ccc(F)cc4-c4ccnnc4C4CC4)C3)C2)C1 (stereo partly drawn) : 600

Could you now consider this next molecule?
Inquiry: Query IC50 for Cc1cn2ccc(N[C@H]3C[C@@H](C(C(C)C)N4CC5(CCN(c6ncnnc6Oc6ccc(F)cc6-c6cncnc6C6CC6)C5)C4)C3)cc2n1 (single isomer, unassigned)
Reply text: 90

* * *

- System: MOLM14 cells
- TEST_NAME: Proliferation assay, spheroid-like growth, MOLM14 (MLL-AF9 rearranged)
- Type: cell-based, human
- MEASUREMENT_CONTEXT: Homo sapiens, MOLM-14, 192 h, 8 days, confluence as measure of spheroid size, read-out: spheroid assay_OneTime MOLM14 IC50
OBSERVED_PROPERTY: IC50
Respond with a number, then the unit of measure.

Here are 2 compounds together with their reported answers.
CC(C)C([C@H]1C[C@@H](Nc2ccn(C)n2)C1)N1CC2(CCN(c3ncnnc3Oc3ccc(F)cc3-c3cncnc3C3CC3)C2)C1 (stereo partly drawn) [Compound 194] : 450 nM
CC(C)[C@@H]([C@H]1C[C@H](N2CCC(O)C(F)C2)C1)N1CC2(CCN(c3ncnnc3Oc3ccc(F)cc3-c3cncnc3C3CC3)C2)C1 (single isomer, unassigned) [Compound 86] : 650 nM

Next, consider the following compound.
Inquiry: Read off the recorded IC50 for CC(C)[C@H]([C@H]1C[C@H](N2CC3(COC3)C2)C1)N1CC2(CCN(c3ncnnc3Oc3ccc(F)cc3-c3ncccc3C3CC3)C2)C1 (single isomer, unassigned) [Compound 152]
Reply text: 49 nM
